Data credit: ChEMBL document CHEMBL1140637

target-or-test-system: Interstitial collagenase (Homo sapiens) (UniProt P03956)
Sequence (P03956 whole entry): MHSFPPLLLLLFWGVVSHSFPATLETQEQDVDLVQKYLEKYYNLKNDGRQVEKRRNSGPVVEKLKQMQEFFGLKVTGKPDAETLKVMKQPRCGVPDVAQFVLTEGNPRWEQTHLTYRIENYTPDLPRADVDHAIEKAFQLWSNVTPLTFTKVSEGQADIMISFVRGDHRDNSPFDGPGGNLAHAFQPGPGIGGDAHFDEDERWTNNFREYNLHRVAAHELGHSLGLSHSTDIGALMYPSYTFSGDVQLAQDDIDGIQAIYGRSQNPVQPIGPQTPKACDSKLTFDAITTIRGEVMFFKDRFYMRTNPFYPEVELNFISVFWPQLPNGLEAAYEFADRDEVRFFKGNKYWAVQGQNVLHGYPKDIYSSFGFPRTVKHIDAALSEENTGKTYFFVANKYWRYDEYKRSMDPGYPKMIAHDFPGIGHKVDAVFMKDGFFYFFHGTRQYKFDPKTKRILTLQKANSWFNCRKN
assay-remarks: Inhibition of MMP1
recorded-metric: log(10^6/IC50)

Use the examples below as a reference point.
chemical-string: COc1ccc(S(=O)(=O)C2(C(=O)NO)CCN(Cc3ccc(-c4cccs4)cc3)CC2)cc1
log(10^6/IC50): 3.27
//
chemical-string: CCCCOc1ccc(S(=O)(=O)C2(C(=O)NO)CCN(Cc3ccc(OCCN4CCCCC4)cc3)CC2)cc1
log(10^6/IC50): 2.71
//
chemical-string: COc1ccc(CCN2CCC(C(=O)NO)(S(=O)(=O)c3ccc(OC)cc3)CC2)cc1
log(10^6/IC50): 3.18
//
chemical-string: COc1ccc(S(=O)(=O)C2(C(=O)NO)CCN(Cc3ccc(OCCN4CCCCC4)cc3)CC2)cc1
log(10^6/IC50): 3.41

A = COc1ccc(S(=O)(=O)C2(C(=O)NO)CCN(CCOc3ccccc3)CC2)cc1
B = CCCCOc1ccc(S(=O)(=O)C2(C(=O)NO)CCN(CC)CC2)cc1
Challenge: Between A and B , which one shows the larger log(10^6/IC50) value? Response format: the label of the selected entry.
Response given: A
(A: 3.2, B: 2.15)

###

target-or-test-system: Matrix metalloproteinase-9 (Homo sapiens)
assay-remarks: Inhibition of MMP9
recorded-metric: log(10^6/IC50)

chemical-string: COc1ccc(S(=O)(=O)C2(C(=O)NO)CCN(Cc3ccc(F)cc3)CC2)cc1
observed-value: 4.8
//
chemical-string: CCCCOc1ccc(S(=O)(=O)C2(C(=O)NO)CCN(Cc3ccc(Cl)c(Cl)c3)CC2)cc1
observed-value: 4.7
//
chemical-string: COc1ccc(S(=O)(=O)[C@](C)(Cc2ccc(OCCCN3CCN(c4cccc(Cl)c4)CC3)cc2)C(=O)NO)cc1
observed-value: 5.15
//
chemical-string: COc1ccc(S(=O)(=O)C2(C(=O)NO)CCN(Cc3ccc(Cl)c(Cl)c3)CC2)cc1
observed-value: 5.22
//
chemical-string: COc1ccc(S(=O)(=O)C2(C(=O)NO)CCN(CCOc3ccccc3)CC2)cc1
observed-value: 4.59

###

target-or-test-system: Matrix metalloproteinase-9 (Homo sapiens) (UniProt P14780)
Sequence (P14780 whole entry): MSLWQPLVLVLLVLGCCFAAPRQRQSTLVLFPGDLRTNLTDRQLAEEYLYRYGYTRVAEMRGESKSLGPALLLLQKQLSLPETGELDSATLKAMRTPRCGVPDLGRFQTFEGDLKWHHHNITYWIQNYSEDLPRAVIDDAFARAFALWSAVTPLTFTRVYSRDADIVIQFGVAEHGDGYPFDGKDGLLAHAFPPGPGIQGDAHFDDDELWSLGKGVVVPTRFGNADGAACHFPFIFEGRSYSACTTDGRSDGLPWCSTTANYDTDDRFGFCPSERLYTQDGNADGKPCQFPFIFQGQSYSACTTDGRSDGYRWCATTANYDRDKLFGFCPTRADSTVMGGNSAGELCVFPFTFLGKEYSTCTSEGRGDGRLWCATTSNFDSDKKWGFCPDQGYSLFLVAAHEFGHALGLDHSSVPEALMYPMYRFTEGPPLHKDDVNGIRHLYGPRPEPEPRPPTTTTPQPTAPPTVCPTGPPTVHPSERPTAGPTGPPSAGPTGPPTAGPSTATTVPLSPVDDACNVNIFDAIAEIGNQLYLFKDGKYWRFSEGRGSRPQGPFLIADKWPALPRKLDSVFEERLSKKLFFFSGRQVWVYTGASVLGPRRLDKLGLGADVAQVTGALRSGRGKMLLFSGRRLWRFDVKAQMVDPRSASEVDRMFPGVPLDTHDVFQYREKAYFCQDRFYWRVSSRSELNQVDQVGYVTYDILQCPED
assay-remarks: Inhibition of MMP9
recorded-metric: log(10^6/IC50)

chemical-string: CCCCOc1ccc(S(=O)(=O)C2(C(=O)NO)CCN(CCCOc3ccccc3)CC2)cc1
log(10^6/IC50): 5.3
//
chemical-string: CCC(CC)COc1ccc(S(=O)(=O)C2(C(=O)NO)CCN(Cc3ccccc3)CC2)cc1
log(10^6/IC50): 4.85
//
chemical-string: COc1ccc(CN2CCC(C(=O)NO)(S(=O)(=O)c3ccc(Oc4ccc(Cl)cc4)cc3)CC2)cc1
log(10^6/IC50): 6
//
chemical-string: O=C(NO)C1(S(=O)(=O)c2ccc(-c3ccco3)cc2)CCN(Cc2ccccc2)CC1
log(10^6/IC50): 5.52
//
chemical-string: COc1ccc(S(=O)(=O)C2(C(=O)NO)CCN(Cc3ccc(-c4ccccn4)cc3)CC2)cc1
log(10^6/IC50): 5.22
//
chemical-string: O=C(NO)C1(S(=O)(=O)c2ccc(Oc3ccc(Cl)cc3)cc2)CCNCC1
log(10^6/IC50): 5.7

###

target-or-test-system: UniProtKB P03956
assay-remarks: Inhibition of MMP1
recorded-metric: log(10^6/IC50)

a = COc1ccc(S(=O)(=O)[C@](C)(Cc2ccc(OCCN3CCCCC3)cc2)C(=O)NO)cc1
b = COc1ccc(S(=O)(=O)C2(C(=O)NO)CCN(C(C)C)CC2)cc1
Challenge: Between a and b , which one shows the larger log(10^6/IC50) value? Response format: the label of the selected entry.
Response given: a
(a: 3.62, b: 2.35)

A = CCCCN1CCC(C(=O)NO)(S(=O)(=O)c2ccc(Oc3ccc(Cl)cc3)cc2)CC1
B = CCN(CC)CCOc1ccc(C[C@](C)(C(=O)NO)S(=O)(=O)c2ccc(-c3ccco3)cc2)cc1
Challenge: Between A and B , which one shows the larger log(10^6/IC50) value? Response format: the label of the selected entry.
Response given: B
(B: 4.85, A: 2.97)
